Protocol: Glass-transition temperature, Tg
Type: physicochemical
Run Parameters: polyalcohols, Table 1
Collected Tg values appear next to each entry.
Just the number in °C, nothing appended.

Sample answers from the record:
[
  {
    "Compound": "OC[C@@H](O)[C@H](O)[C@@H](O)CO [xylitol]",
    "Result Unit": "°C",
    "Tg": -25.3
  },
  {
    "Compound": "OC[C@@H](O)[C@@H](O)[C@H](O)[C@@H](O)CO [sorbitol]",
    "Result Unit": "°C",
    "Tg": -4.8
  },
  {
    "Compound": "OCC(O)CO [glycerol]",
    "Result Unit": "°C",
    "Tg": -81.4
  }
]

Attention now shifts to the item below.
### Prompt Annotate the compound OC[C@@H](O)[C@H](O)CO [threitol] with its measured Tg.
### Response -46.8
